Molecular target: chemokine receptors
No end group written: not given here.
assay_metric: pIC50
One number for each entry, as −log10 of the molar value.

Please review the following examples before continuing.
| binder | pIC50 |
| --- | --- |
| SYRRITSSKCPKEAV [peptide 2(1-15)[MCP-1]] | 6.40 |
| VAEKPCKSSTIRRYS (not fully specified (some residues)) [LRD peptide 2(1-15)[MCP-1]] | 5.52 |

Return value of pIC50 for input HLKILNTPNCALQIV [Pep2(1-15)[SDF1]] , no commentary.
4.46
